Every entry's value here was drawn from patent US7550476B2.

readout-kind: melting point

Solved cases below.
melting point measured on COc1cc2cc(CO)c(CO)c(-c3ccnc(C4C(=O)CCCC4=O)c3)c2cc1OC = > 220 °C

melting point measured on COc1cc2c(cc1OC)C(c1ccccc1)N1CCN(CSC)CC1C2.Cl.Cl (stereo not shown) = 217 to 220 °C (dec.)

melting point measured on COc1cc2c(cc1OC)C(c1ccccc1)N1CCN(Cc3ccccc3)CC1C2.Cl.Cl (stereo not shown) = 198 to 203 °C (dec.)

melting point measured on COc1cc2c(cc1OC)C(c1ccccc1)N1CCN(CC(=O)O)CC1C2.Cl.Cl (stereo not shown) = 214 to 217 °C (dec.)

melting point measured on COc1cc2cc(COC(C)=O)c(COC(C)=O)c(-c3ccnc(C4C(=O)CCCC4=O)c3)c2cc1OC = 210 to 213 °C

New cases:
melting point measured on COc1cc2c(cc1OC)C(c1ccccc1)N1CCN(C(=O)c3ccccc3)CC1C2.Cl (stereo not shown) = 229 to 233 °C (dec.)

melting point measured on COc1cc2c(cc1OC)C(c1ccc(OC(C)C)cc1)N1CCNCC1C2.Cl.Cl (stereo not shown) = 180 to 185 °C (dec.)
